Numbers sourced from ChEMBL document CHEMBL1134724.

- protocol: Selectivity ratio as antilogarithm of smallest difference between the pKi value at 5-HT6 receptor and range of comparator receptors
valueKind: Selectivity ratio

Before answering, review these 3 worked examples.
| compoundStructure | Selectivity ratio |
| --- | --- |
| Cc1c(S(=O)(=O)Nc2ccc3nccc(N4CCN(C)CC4)c3c2)sc2ccc(Cl)cc12 | 250 |
| Cc1c(S(=O)(=O)Nc2ccc3nccc(N4CCNCC4)c3c2)oc2ccc(Cl)cc12 | 200 |
| Cc1c(S(=O)(=O)Nc2ccc3nccc(N4CCN[C@H](C)C4)c3c2)sc2ccc(Cl)cc12 | 3200 |

[A] Cc1sc2c(Cl)cccc2c1S(=O)(=O)Nc1ccc2nccc(N3CCNCC3)c2c1
[B] CCc1c(S(=O)(=O)Nc2ccc3nccc(N4CCNCC4)c3c2)sc2ccc(Cl)cc12
[ask] Hi! Which is lower in terms of Selectivity ratio, the first one A or the second one B ? Please identify the chosen entry by its label.
[reply] A

----------
- testTarget: 5-hydroxytryptamine receptor 6 (Homo sapiens)
- Sequence (P50406 whole entry): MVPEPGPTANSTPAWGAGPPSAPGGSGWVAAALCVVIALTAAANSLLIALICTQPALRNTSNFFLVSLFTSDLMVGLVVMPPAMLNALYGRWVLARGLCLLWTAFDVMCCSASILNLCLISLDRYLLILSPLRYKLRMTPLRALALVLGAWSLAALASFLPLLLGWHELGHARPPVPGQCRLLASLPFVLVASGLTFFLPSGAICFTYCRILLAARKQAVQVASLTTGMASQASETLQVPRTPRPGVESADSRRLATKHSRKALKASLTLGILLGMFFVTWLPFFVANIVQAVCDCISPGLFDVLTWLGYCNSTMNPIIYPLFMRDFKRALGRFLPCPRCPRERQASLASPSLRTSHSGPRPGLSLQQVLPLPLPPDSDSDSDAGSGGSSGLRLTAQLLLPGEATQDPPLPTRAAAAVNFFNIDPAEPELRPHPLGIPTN
- protocol: Binding affinity against human 5-hydroxytryptamine 6 receptor
valueKind: Ki (nM)

| compoundStructure | unitAbbrev | Ki |
| --- | --- | --- |
| Cc1sc2c(Cl)cccc2c1S(=O)(=O)Nc1ccc2nccc(N3CCNCC3)c2c1 | nM | 2 |
| Cc1sc2c(Cl)cc(Cl)cc2c1S(=O)(=O)Nc1ccc2nccc(N3CCNCC3)c2c1 | nM | 2 |
| Cc1c(S(=O)(=O)Nc2ccc3nccc(N4CCNCC4)c3c2)sc2ccc(Cl)cc12 | nM | 2 |
